test target: AgORco+AgOR48 (Anopheles gambiae, UniProt Q7QCC7)
Construct: expressed in transfected cells
protocol text: Ca2+ imaging, HEK cells expressing AgORco+AgOR48
Format: cell-based
recorded conditions: Orco + 48, agonist; read-out: Orco + 48 Agonist EC50
measurement name: pEC50
One number for each entry, as −log10 of the molar value.

> print(dat)
                                   compound  test.value
1  CC(C)c1ccc(NC(=O)CSc2nnc(-c3ccncc3)n2C2CC2)cc1 [drawing 634]        5.72
2  CCCn1c(SCC(=O)Nc2ccc(C(C)C)cc2)nnc1-c1ccncc1        4.72
3  CCc1ccc(NC(=O)CSc2nnc(-c3ccncc3)n2C2CC2)cc1        4.89
4  CCn1c(SCC(=O)Nc2ccc(C(C)C)cc2)nnc1-c1cncs1        4.77

Now turn to the next compound.
Inquiry: Notebook: pull reported pEC50 for AgORco+AgOR48 (Anopheles gambiae, UniProt Q7QCC7), entry `CCn1c(SCC(=O)Nc2ccc(C(C)C)cc2)nnc1-c1cc[nH]c1`
Reply text: 4.86

* * *

So I've got a bunch of molecules here, and I need their Orco 28 + Orco Potentiator % increase values.
test target: Orco 28 + Orco (Anopheles gambiae, UniProt Q7QCC7)
Construct: expressed in transfected cells
protocol text: Orco 28 + Orco: agonist / antagonist / potentiator screen (Table 1)
Assay type: cell-based
recorded conditions: potentiator mode
One number for each entry, in %.

Solved cases (3 shown):
> print(dat)
                                        smi  unit.label  test.value
1  Cc1ccc(NC(=O)CSc2nnc(-c3cccnc3)n2C)c(C)c1           %       12.63
2    CCn1c(SCc2nc3ccccc3[nH]2)nnc1-c1cccnc1           %        15.1
3       CCn1c(SCC(=O)C(C)(C)C)nnc1-c1cccnc1           %       17.24

// input: 2 molecules below; output: Orco 28 + Orco Potentiator % increase for each
1. Cn1c(SCC(=O)Nc2ccc(Br)cc2)nnc1-c1cccnc1
2. COC(=O)c1ccccc1NC(=O)CSc1nnc(-c2cccnc2)n1C

Reply text:
11.23
18.02

* * *

test target: Orco (AgORco) (Anopheles gambiae)
Construct: expressed in transfected cells
Sequence (Q7QCC7 1-478): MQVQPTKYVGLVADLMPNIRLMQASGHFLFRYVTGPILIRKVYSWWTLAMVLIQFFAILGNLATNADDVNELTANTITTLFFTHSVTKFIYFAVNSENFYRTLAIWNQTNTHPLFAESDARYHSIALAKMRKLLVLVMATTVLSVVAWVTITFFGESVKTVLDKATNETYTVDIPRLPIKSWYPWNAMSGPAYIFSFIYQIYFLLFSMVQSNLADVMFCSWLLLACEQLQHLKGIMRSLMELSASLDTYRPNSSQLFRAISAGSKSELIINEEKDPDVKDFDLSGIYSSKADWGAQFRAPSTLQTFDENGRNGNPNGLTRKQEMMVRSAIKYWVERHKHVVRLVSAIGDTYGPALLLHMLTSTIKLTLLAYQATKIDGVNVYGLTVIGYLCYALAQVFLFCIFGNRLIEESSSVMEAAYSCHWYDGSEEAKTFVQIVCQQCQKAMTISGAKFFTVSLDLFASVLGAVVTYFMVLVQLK
protocol text: Fluo-4 Ca2+ imaging, HEK293 cells expressing Orco alone
Type: cell-based
recorded conditions: Orco alone; read-out: Orco Agonist EC50
Exercise: state measured EC50 for each of the compounds provided.
# answer = value followed by unit

Solved entries (count: 5):
> print(dat)
                                   compound  measurement.name  test.value
1  CCn1c(SCC(=O)Nc2ccc(C(C)C)cc2)nnc1-c1ccncc1              EC50      7.4 µM
2  CCn1c(SCC(=O)Nc2ccc(C)cc2)nnc1-c1cccnc1 [drawing 372]              EC50      262 µM
3  C=Cc1ccc(NC(=O)CSc2nnc(-c3cccnc3)n2CC)cc1 [drawing 376]              EC50      102 µM
4  CCn1c(SCC(=O)N2CCc3cc(Br)ccc32)nnc1-c1cccnc1              EC50       55 µM
5  CCn1c(SCC(=O)Nc2ccc(C(C)C)cc2)nnc1-c1ccnc(F)c1              EC50      100 µM

# per-item lookup of EC50; items listed below
1. CCn1c(SCC(=O)Nc2ccc(C(C)C)cc2)nnc1-c1cccnc1 [drawing 381]
2. CCc1ccc2c(c1)CCN2C(=O)CSc1nnc(-c2cccnc2)n1CC
3. CCn1c(SCC(=O)Nc2ccc(Br)cc2F)nnc1-c1cccnc1
4. CCCc1ccc(NC(=O)CSc2nnc(-c3cccnc3)n2CC)cc1

Reply text:
["12.9 µM", "35 µM", "192 µM", "63 µM"]

* * *

test target: AgORco+AgOR10 (Anopheles gambiae)
Construct: expressed in transfected cells
protocol text: Fluo-4 Ca2+ imaging, HEK293 cells expressing Orco+AgOR10
Type: cell-based
Parameters: concentration or dose not given beside the values
recorded conditions: Orco 10 + Orco, antagonist mode
Please go through the items and note down their Orco 10 + Orco Angatonist % Reduction.
Give bare numbers, in %.

> print(dat)
                                        smi                       measurement.name  test.value
1  CCOC(=O)CN(C(=O)CSc1nnc(CNc2ccc(C)cc2C)n1CC)c1ccccc1  Orco 10 + Orco Angatonist % Reduction       57.34
2  CCOc1ccc(-n2c(SCc3cc(=O)oc4cc(C)ccc34)nnc2-c2cccnc2)cc1  Orco 10 + Orco Angatonist % Reduction       12.48
3  CCn1c(SCC(=O)Nc2ccc3c(c2)OCCO3)nnc1-c1c[nH]c2ccccc12  Orco 10 + Orco Angatonist % Reduction       17.90
4  CCOC(=O)CN(C(=O)CSc1nnc(COc2ccc(OC)cc2)n1CC)c1ccccc1  Orco 10 + Orco Angatonist % Reduction       49.09

Okay, next one:
Inquiry: Give the reported Orco 10 + Orco Angatonist % Reduction for `CC(C)c1ccccc1-n1c(SCc2cc(=O)oc3ccc4ccccc4c23)nnc1-c1cccnc1` (system: AgORco+AgOR10 (Anopheles gambiae)).
Reply text: 26.15

* * *

test target: AgOrco+AgOR65 (Anopheles gambiae, UniProt Q7QCC7)
Construct: expressed in transfected cells
Sequence (Q7QCC7 1-478): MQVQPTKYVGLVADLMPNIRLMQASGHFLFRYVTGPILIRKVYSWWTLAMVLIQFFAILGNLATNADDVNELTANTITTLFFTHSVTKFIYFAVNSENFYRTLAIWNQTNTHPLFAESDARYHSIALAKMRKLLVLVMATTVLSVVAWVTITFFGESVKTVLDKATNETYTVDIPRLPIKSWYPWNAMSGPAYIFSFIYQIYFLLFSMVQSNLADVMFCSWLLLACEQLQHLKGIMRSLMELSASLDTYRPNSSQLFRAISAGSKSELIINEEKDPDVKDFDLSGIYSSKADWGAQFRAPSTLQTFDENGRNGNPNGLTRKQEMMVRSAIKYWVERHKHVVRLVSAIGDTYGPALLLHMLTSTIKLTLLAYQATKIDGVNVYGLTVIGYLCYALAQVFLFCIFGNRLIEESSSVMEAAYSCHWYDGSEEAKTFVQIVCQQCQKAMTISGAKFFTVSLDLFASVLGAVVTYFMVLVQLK
protocol text: Ca2+ imaging, HEK cells expressing AgOrco+AgOR65
Format: cell-based
recorded conditions: Orco + 65, agonist; read-out: Orco + 65 Agonist EC50
measurement name: EC50
Please give the number followed by its unit.

Inquiry: Look at this compound and give its reported EC50. CC(C)c1ccc(NC(=O)CSc2nnc(-c3ccncc3)n2C2CC2)cc1 [drawing 634]
Reply text: 3.1 µM

* * *

test target: AgORco+AgOR10 (Anopheles gambiae, UniProt Q7QCC7)
Construct: expressed in transfected cells
protocol text: Fluo-4 Ca2+ imaging, HEK293 cells expressing Orco+AgOR10
Assay type: cell-based
Set-up: concentration or dose not given beside the values
recorded conditions: Orco 10 + Orco, antagonist mode
Description: For transient transfections, ORs were cloned into pCl (Promega) and transfected into Flp-In™ T-REx™293 cell lines (Invitrogen) with Fu GENE6 (Roche). […] Baseline readings were taken for 20 s before automated addition of compound previously diluted in DMSO and assay buffer. […]
measurement name: Orco 10 + Orco Angatonist % Reduction

Please review the following examples before continuing.
> print(dat)
                                   compound                               test.target  test.value
1  CCn1c(SCC(=O)N2c3ccccc3Sc3ccccc32)nnc1-c1ccco1  AgORco+AgOR10 (Anopheles gambiae, UniProt Q7QCC7)      48.26%
2  CCn1c(SCC(=O)Nc2ccc(OC)cc2)nnc1-c1ccc2[nH]c(C)c(C)c2c1  AgORco+AgOR10 (Anopheles gambiae, UniProt Q7QCC7)      24.94%
3  CCn1c(COc2ccccc2)nnc1SCC(=O)Nc1cc(C)ccc1OC  AgORco+AgOR10 (Anopheles gambiae, UniProt Q7QCC7)      33.67%
4  Cc1ccc(-n2c(SCC(=O)N3CCCc4ccccc43)nnc2-c2cccnc2)c(C)c1  AgORco+AgOR10 (Anopheles gambiae, UniProt Q7QCC7)      26.04%
5  CCn1c(COc2ccc(C)cc2)nnc1SCC(=O)Nc1cc(OC)ccc1OC  AgORco+AgOR10 (Anopheles gambiae, UniProt Q7QCC7)      59.64%
6  CC(C)c1ccccc1-n1c(SCC(=O)N2CCN(c3ccccc3)CC2)nnc1-c1cccnc1  AgORco+AgOR10 (Anopheles gambiae, UniProt Q7QCC7)      42.29%
7  CCn1c(CNC(=O)COc2ccc(C(C)C)cc2)nnc1SCC(=O)Nc1cc(F)ccc1C  AgORco+AgOR10 (Anopheles gambiae, UniProt Q7QCC7)      31.15%
8  COc1cc(Cl)c(C)cc1CSc1nnc(-c2cccnc2)n1Cc1ccco1  AgORco+AgOR10 (Anopheles gambiae, UniProt Q7QCC7)      28.40%

Lab note: each compound below needs its Orco 10 + Orco Angatonist % Reduction filled in.
1. Cc1ccc(-n2c(SCC(=O)NCc3ccc4c(c3)OCO4)nnc2-c2cccnc2)c(C)c1
2. CCOc1ccc(-n2c(SCc3cc(=O)oc4cc(C)c(C(C)C)cc34)nnc2-c2cccnc2)cc1
3. CCn1c(CNc2ccc(F)cc2)nnc1SCC(=O)N1CCCc2ccccc21
4. Cc1ccc(Nc2nc(CSc3nnc(-c4cccnc4)n3-c3ccccc3C)cs2)cc1
5. CCn1c(SCC(=O)N2c3ccccc3CCc3ccccc32)nnc1-c1ccc(OC)cc1
6. N#Cc1ccc(CSc2nnc(-c3cccnc3)n2-c2ccccc2)cc1
7. CCn1c(Cc2c(C)[nH]c3ccccc23)nnc1SCC(=O)Nc1ccc(Br)cc1

Reply text:
["31.14%", "48.28%", "18.47%", "52.47%", "41.48%", "20.08%", "13.11%"]

# batch: return Orco 10 + Orco Angatonist % Reduction for each of the 2 compounds below
1. CCOc1ccccc1-n1c(SCC(=O)c2cccc([N+](=O)[O-])c2)nnc1-c1cccnc1
2. CCN(CC)S(=O)(=O)c1ccc(-c2nnc(SCC(=O)N3c4ccccc4CC3C)n2CC)cc1 (centres unmarked)

Reply text:
1. 22.28%
2. 31.53%
